Values from ChEMBL document CHEMBL1287649

System: Candida albicans
Test: Antifungal activity against Candida albicans-51 NCIM C27 after 72 to 96 hrs by twofold serial dilution method
Type: functional
QUANTITY MEASURED: MIC (µg/mL)
Answers are plain numbers, in µg/mL.

Check out these entries, answers already filled in.
COc1cccc([C@H]2N[C@@H](c3cccc(OC)c3)C3CCCC2/C3=N\NC(=O)c2ccncc2)c1    200
O=C(N/N=C1\C2CCCC1[C@H](c1ccc(F)cc1)N[C@@H]2c1ccc(F)cc1)c1ccncc1    50
Cc1ccc([C@H]2N[C@@H](c3ccc(C)cc3)C3CCCC2/C3=N\NC(=O)c2ccncc2)cc1    100
O=C(N/N=C1\C2CCCC1[C@H](c1ccc(Cl)cc1)N[C@@H]2c1ccc(Cl)cc1)c1ccncc1    50
O=C(N/N=C1\C2CCCC1[C@H](c1ccccc1)N[C@@H]2c1ccccc1)c1ccncc1    100

Batch request: MIC for each of the following molecules.
1. C[C@@H]1[C@H](O)[C@@H](C)/C=C/C=C/C=C/C=C/C=C/C=C/C=C/[C@H](O[C@@H]2O[C@H](C)[C@@H](O)[C@H](N)[C@@H]2O)C[C@@H]2O[C@](O)(C[C@@H](O)C[C@@H](O)[C@H](O)CC[C@@H](O)C[C@@H](O)CC(=O)O[C@H]1C)C[C@H](O)[C@H]2C(=O)O [AMPHOTERICIN B]
2. COc1ccc([C@H]2N[C@@H](c3ccc(OC)cc3)C3CCCC2/C3=N\NC(=O)c2ccncc2)cc1
3. O=C(N/N=C1\C2CCCC1[C@H](c1cccc(Cl)c1)N[C@@H]2c1cccc(Cl)c1)c1ccncc1

OUTPUT:
25
100
200

====

System: Bacillus subtilis
Test: Antibacterial activity against Bacillus subtilis NCIM 2439 after 24 hrs by twofold serial dilution method
Assay type: functional
Details: NCIM 2439, 24 h
For each of the compounds below, state its log10(MIC).
Hello, just confirming the data are log10 of MIC with units of µg/mL.

Check out these entries, answers already filled in.
O=C(N/N=C1\C2CCCC1[C@H](c1ccc(Cl)cc1)N[C@@H]2c1ccc(Cl)cc1)c1ccncc1    2.00
CC1(C)S[C@@H]2[C@H](NC(=O)Cc3ccccc3)C(=O)N2[C@H]1C(=O)O [PENICILLIN G]    1.40

Batch request: log10(MIC) for each of the following compounds.
1. O=C(N/N=C1\C2CCCC1[C@H](c1ccc(F)cc1)N[C@@H]2c1ccc(F)cc1)c1ccncc1
2. O=C(N/N=C1\C2CCCC1[C@H](c1cccc(Cl)c1)N[C@@H]2c1cccc(Cl)c1)c1ccncc1

OUTPUT:
1: 1.70; 2: 2.00

Batch request: log10(MIC) for each of the following compounds.
1. CN[C@@H]1[C@H](O[C@H]2[C@H](O[C@H]3[C@H](O)[C@@H](O)[C@H](N=C(N)N)[C@@H](O)[C@@H]3N=C(N)N)O[C@@H](C)[C@]2(O)C=O)O[C@@H](CO)[C@H](O)[C@H]1O [STREPTOMYCIN]
2. COc1cccc([C@H]2N[C@@H](c3cccc(OC)c3)C3CCCC2/C3=N\NC(=O)c2ccncc2)c1
3. Cc1ccc([C@H]2N[C@@H](c3ccc(C)cc3)C3CCCC2/C3=N\NC(=O)c2ccncc2)cc1
4. COc1ccc([C@H]2N[C@@H](c3ccc(OC)cc3)C3CCCC2/C3=N\NC(=O)c2ccncc2)cc1

OUTPUT:
[1.10, 1.70, 2.30, 2.30]
